The reported measurements were obtained from ChEMBL document CHEMBL4689842.

Tested on: HEK-293T
Assay: Multiplex assay against HEK293T
Format: toxicity, cell-based
Settings: human, 48 h, 10 µM, compound concentration 10 uM, replicate 2
For each entry below, report its Population Membrane Permeable-Phenotype (%) value.
One number for each entry, in %.

# per-item lookup of Population Membrane Permeable-Phenotype (%); items listed below
1. COc1cc(-n2cnc3cc(-c4ccc(Cl)cc4)sc3c2=O)ccc1OCCN1CCCC1
2. CN(C)C(=O)/C(C#N)=C/c1ccc(-c2nc3cnc4[nH]ccc4c3n2C2CCCCC2)o1
3. Cc1[nH]c(/C=C2\C(=O)Nc3ccc(S(=O)(=O)N(C)c4cccc(Cl)c4)cc32)c(C)c1C(=O)N1CCN(C)CC1
4. C=CC(=O)Nc1ccc2ncnc(Nc3ccc(OCc4cccc(F)c4)c(Cl)c3)c2c1.Cc1ccc(S(=O)(=O)O)cc1

1. 12
2. 10
3. 9
4. 8

Give Population Membrane Permeable-Phenotype (%) for all molecules that follow.
1. C[C@@]1(C(=O)Nc2ccc(F)nc2)CCCN1c1nc(Nc2cc(C3CC3)n[nH]2)c2cccn2n1
2. Cc1cc(C)cc(-c2cnc3cc(Cl)c(-c4cccc(O)c4)cc3c2OCCCN)c1

3
12
